B1: HDV Ribozyme (parent)
chain: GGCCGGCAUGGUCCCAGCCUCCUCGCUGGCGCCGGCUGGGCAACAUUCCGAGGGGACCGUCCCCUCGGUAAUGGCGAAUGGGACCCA

# Variants of: B1
# assay comment: self-cleavage, relative activity (ratio to wild type); higher = more cleavage; co-transcriptional
reported endpoint: self-cleavage
Lab note: record just the number, no unit beside it.

Requested read-out: self-cleavage. Entry: `GGCCGGCAUGGUCCUAGCCUCCUCGCUGGCGCCGGCUGGGCAACAUUCCGAGGGGACCAUCCCCUCGGUAAUGGCGAAUGGGACCCA`
0.851

// lookup self-cleavage for `GGCCGGCAUGUUCCCAGCCUCCUCGCUGGCGCCGGCUGGGCAACAUUCCGAGGGGACCGGCCCCUCGGUAAUGGCGAAUGGGACCCA`
0.381

So what does the record say about self-cleavage for `GGCCGGCAUGGUCCCAGCCUCCUCGCUGGCGCCGGCUGGGCAACAUUCCGAGGGGACGGUCCCCUCGGUAAUGGCGAUUGGGACCCA` ?
0.277

Which measured self-cleavage value corresponds to `GGCCGGCAUGGUCCCAGCCUCCUCGCUGGCGCCGGCUGGGCAGCAUUCCGAGGGGACCGUCCCCUCGGUUAUGGCGAAUGGGACCCA` ?
0.743

Tell me the measured self-cleavage of `GGCCGGCAUGGUCCCAGCCUCCUCGCUGGCGCCGGCUGGGCAACAUUCCGAGGGGACCGUCCCCUCGGUGAUGGCGAAUGGGUCCCA` , please.
0.511

Given the variant `GGCCGGCAUGGACCCAGCCUCCUCGCUGGCGCCGGCUGGGCAGCAUUCCGAGGGGACCGUCCCCUCGGUAAUGGCGAAUGGGACCCA` , what is its reported self-cleavage?
0.0831

Form field: reported self-cleavage of `GGCCGGCAUGGUCCCAGCCUCCUCGCUGGCGCCGGCUGGGCAACAUUCCGAGGGUACCGUCCCCUCGGUAAUGGCGAAUGGGAUCCA`
0.743

Need self-cleavage, item `GGCCGGCAUGGUCACAGCCUCCUCGCUGGCGCCGGCUGGGCAACAUUCCGAGGGGACCGUCCCCUCGGUAAUGGCGACUGGGACCCA`
0.158

Which self-cleavage reading was recorded for the variant `GGCCGGCAUGGUCCCAGACUCCUCGCUGGCGCCGGCUGGGCAACAUUCCGAGGGGACCGUCCCCUCGGUAACGGCGAAUGGGACCCA` ?
0.0437

Dear colleague, I am looking for the recorded self-cleavage of the following variant: `GGCCGGCAUGGUCCCAGCCUCCUCGCUGGCGCAGGCUGGGCAACAUUCCGAGGGGCCCGUCCCCUCGGUAAUGGCGAAUGGGACCCA`
0.339

Which value of self-cleavage has been reported for `GGCCGGCAUGGGCCCAGCCGCCUCGCUGGCGCCGGCUGGGCAACAUUCCGAGGGGACCGUCCCCUCGGUAAUGGCGAAUGGGACCCA` in the records?
0

Recorded self-cleavage of `GGCCGGCAUGGUCCCAGCCUCCUCGCUGGCGCCGGCUGGGCAACAUUCCGAGGGGACCGUCCCCUCGGUCAUGGCAAAUGGGACCCA` , please.
0.96

What measured self-cleavage goes with `GGCCGGCAUGAUCCCAGCCUCCUCGCUGGCGCCGGCUGGGCUACAUUCCGAGGGGACCGUCCCCUCGGUAAUGGCGAAUGGGACCCA` ?
0.158

Item `GGCCGGCAUGGUCCCAGCCUCCUCGCUGGCACCGGCUGGGCAACACUCCGAGGGGACCGUCCCCUCGGUAAUGGCGAAUGGGACCCA` has what recorded self-cleavage?
0.166

# query: self-cleavage of entry `GGCCGGUAUGGUCCCAGCCUCCUCGCUGGCGCCGGCUGGGCAACAUUCCGAGGGGACCGUCCCCUCGGUUAUGGCGAAUGGGACCCA`
0.748

# self-cleavage lookup, item `GGCCGGCAUGGUCCCAGCCUCCUCGCUGGCGCCUGCUGGGCAACAUUCCGAGGGGACCGUUCCCUCGGUAAUGGCGAAUGGGACCCA`
0.208

// self-cleavage lookup, key: `GGCCGCCAUGGUCCCAGCCUCCUCGCUGGCGCCGGCUGGGCAACAUUCCGAGGGGACCGUCCCCUCGGUAAUGGCGAAUGGGCCCCA`
0.0875

Fill blank: measured self-cleavage of the variant `GGCCGGCAUGGUCCCAGCCUCCUCGCUGGCGCCAGCUGGGCAACAUUCCGAGGGGACCGUCCCCUCGGUAAUGGCGAAUGGGACCUA` is ____.
0.176

Bench note: what self-cleavage did `GGCCGGCAUGGUCCCAGCCUCCUCGCUGGCGCCGGCUGGGCGACAUUCCGAGGGGACCGUCCCCUCCGUAAUGGCGAAUGGGACCCA` show?
0.365

What does the record list as self-cleavage for `GGCCGGCAUGGUCCCAGCCUCCUCGCUGGCGCCGGCUGGGCAACAUUCCGAGGCGACCGUCCCCACGGUAAUGGCGAAUGGGACCCA` ?
0.721

Report self-cleavage for `GGCCGGCAUGGUCCCAGCCUACUCGCUGGCGCCGGCUGGGCAACAUUCCGAGGGGACCGUCCCCUCGGUAAUGGCGAAUGGAACCCA` please.
0.0594

Reported self-cleavage, variant `GGCCGGCAAGGUCCCAGCCUCCUCGCUGGUGCCGGCUGGGCAACAUUCCGAGGGGACCGUCCCCUCGGUAAUGGCGAAUGGGACCCA` : ____
0.776

Values compiled from the RNAGym collection of RNA variant scans (doi:10.7554/elife.80360).
